biological target: E. coli TrxR (Escherichia coli, UniProt P0A9P4); test: E. coli TrxR inhibition, thioredoxin dependent DTNB reduction assay; type: biochemical; conditions: Lineweaver-Burk plots, reduction of DTNB; read-out: Ki (dissociation constant of inhibitor-TrxR complex), competitive inhibition of E. coli TrxR
Sequence (P0A9P4 whole entry): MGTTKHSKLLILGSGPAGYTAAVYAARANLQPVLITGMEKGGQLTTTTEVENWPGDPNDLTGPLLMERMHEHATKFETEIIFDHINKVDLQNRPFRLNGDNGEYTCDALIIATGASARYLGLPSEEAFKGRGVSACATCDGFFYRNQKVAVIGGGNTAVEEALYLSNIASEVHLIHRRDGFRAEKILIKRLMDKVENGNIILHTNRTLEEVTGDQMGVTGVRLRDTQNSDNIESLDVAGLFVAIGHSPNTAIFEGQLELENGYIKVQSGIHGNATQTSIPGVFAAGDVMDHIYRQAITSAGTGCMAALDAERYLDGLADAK
READOUT LABEL: Ki (nM)
Provide only the numeric value, understood in nM.

## Input What is its Ki for E. coli TrxR (Escherichia coli, UniProt P0A9P4)? Entry: O=C(Nc1ccccc1)c1ccccc1[Se][Se]c1ccccc1C(=O)Nc1ccccc1 [(EbSe)2]
## Output 460

###

For each entry below, report its pIC50 value.
test system: HEK 293T cells; test: HEK 293T cells growth (cytotoxicity); format: cell-based; conditions: Homo sapiens, HEK-293T, read-out: IG50 for HEK 293T
Just so you know, pIC50 here is -log10 of the concentration in molar units; reply with that number alone.

## Input Entry O=c1c2ccccc2[se]n1-c1ccccc1[N+](=O)[O-] : reported pIC50 = ?
## Output 4.10

## Input Entry CCOC(=O)c1cccnc1[Se]Nc1ccc(Cl)cn1 : reported pIC50 = ?
## Output 4.22

## Input Entry O=c1c2ccccc2[se]n1CCCCCCn1[se]c2ccccc2c1=O : reported pIC50 = ?
## Output 5.04
